B1: TPR t1 (parent)
chain: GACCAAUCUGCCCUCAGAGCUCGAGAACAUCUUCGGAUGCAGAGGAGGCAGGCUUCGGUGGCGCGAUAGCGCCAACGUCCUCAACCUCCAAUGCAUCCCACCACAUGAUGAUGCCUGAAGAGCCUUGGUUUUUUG

# Variants of: B1
# Experimental Details: polymerase ribozyme fitness, log enrichment relative to wild type (log ratio); higher = more active; in vitro selection for triplet polymerase activity
Class T: polymerase ribozyme fitness (log ratio) at least -2. Class F: polymerase ribozyme fitness (log ratio) below -2.

Sequence Variant	Cat
A6U U55C C76U	T

Has U92A C115U a recorded polymerase ribozyme fitness (log ratio) greater than or equal to -2?
F

Has U32G C82U A121C a recorded polymerase ribozyme fitness (log ratio) greater than or equal to -2?
F

Has A50U U112A a recorded polymerase ribozyme fitness (log ratio) greater than or equal to -2?
T

Data credit: the RNAGym collection of RNA variant scans (doi:10.1073/pnas.2313332121)
